target or test system: Voltage-dependent T-type calcium channel subunit alpha-1I (Homo sapiens)
Sequence (Q9P0X4 whole entry): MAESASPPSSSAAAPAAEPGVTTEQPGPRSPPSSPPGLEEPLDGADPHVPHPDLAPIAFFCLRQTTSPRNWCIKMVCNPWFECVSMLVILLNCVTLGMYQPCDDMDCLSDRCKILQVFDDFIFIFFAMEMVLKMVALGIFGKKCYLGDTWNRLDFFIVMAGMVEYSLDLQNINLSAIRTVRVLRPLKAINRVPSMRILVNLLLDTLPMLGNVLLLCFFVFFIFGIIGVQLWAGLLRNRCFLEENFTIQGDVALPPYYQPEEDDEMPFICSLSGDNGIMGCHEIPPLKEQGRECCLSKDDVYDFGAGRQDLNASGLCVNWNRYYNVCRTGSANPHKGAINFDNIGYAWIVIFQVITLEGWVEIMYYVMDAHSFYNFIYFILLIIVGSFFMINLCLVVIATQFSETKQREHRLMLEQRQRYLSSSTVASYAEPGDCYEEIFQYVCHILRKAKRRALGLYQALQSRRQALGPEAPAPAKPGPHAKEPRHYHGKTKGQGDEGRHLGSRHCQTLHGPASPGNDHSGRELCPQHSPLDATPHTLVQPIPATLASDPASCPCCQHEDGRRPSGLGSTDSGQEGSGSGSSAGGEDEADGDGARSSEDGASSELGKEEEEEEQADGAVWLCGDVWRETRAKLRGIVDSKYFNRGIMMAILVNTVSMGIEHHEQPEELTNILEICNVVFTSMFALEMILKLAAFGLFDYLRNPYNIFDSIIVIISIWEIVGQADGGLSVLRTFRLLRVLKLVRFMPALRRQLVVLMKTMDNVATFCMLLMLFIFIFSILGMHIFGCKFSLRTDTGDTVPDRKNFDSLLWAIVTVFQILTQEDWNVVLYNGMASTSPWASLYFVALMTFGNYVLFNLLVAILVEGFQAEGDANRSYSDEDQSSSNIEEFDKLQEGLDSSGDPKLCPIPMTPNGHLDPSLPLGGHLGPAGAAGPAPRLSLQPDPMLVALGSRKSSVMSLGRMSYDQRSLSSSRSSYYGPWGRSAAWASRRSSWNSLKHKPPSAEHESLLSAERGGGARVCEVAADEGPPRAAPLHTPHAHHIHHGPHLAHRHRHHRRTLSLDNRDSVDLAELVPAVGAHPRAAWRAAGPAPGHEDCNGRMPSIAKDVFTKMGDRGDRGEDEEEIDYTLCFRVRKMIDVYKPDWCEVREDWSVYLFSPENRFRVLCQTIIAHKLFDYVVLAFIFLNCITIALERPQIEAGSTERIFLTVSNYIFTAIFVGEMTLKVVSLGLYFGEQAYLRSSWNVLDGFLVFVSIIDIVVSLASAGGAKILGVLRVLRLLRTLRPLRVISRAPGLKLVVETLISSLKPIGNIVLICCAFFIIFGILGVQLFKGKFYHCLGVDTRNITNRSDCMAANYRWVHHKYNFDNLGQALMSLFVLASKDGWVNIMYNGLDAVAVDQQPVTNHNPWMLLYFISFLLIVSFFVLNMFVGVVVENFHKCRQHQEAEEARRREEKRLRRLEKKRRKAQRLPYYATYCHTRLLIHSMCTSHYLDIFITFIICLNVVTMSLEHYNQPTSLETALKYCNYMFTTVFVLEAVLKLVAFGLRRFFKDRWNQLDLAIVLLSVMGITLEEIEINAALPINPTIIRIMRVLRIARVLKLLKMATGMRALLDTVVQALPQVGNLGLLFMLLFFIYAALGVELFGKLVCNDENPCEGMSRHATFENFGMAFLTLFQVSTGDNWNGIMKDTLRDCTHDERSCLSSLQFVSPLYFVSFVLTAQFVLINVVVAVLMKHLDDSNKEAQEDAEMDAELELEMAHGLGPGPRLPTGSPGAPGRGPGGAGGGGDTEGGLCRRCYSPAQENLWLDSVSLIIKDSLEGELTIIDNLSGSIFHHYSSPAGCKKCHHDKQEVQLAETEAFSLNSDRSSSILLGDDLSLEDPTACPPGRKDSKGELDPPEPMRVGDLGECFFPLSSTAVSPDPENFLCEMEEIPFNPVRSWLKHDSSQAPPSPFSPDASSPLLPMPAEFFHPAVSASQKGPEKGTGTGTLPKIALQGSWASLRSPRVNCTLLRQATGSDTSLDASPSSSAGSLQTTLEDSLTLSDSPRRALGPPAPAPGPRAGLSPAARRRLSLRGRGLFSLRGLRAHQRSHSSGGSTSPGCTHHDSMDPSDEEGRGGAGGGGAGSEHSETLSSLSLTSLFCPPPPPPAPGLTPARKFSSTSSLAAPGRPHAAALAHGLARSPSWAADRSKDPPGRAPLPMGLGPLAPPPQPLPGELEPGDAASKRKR
method summary: Antagonist activity at Cav3.3 at -80 mV holding potential by whole cell patch clamp analysis
Format: functional
parameter: IC50
# output: numeric value plus its unit

Reported IC50 for `Cc1nccnc1-c1ccc(CC(=O)N[C@H](C)c2ccc(OCC(F)(F)F)cn2)cc1` was 264 nM

* * *

Give measured Vd for each item. Keep answers brief.
method summary: Volume of distribution at steady state in dog at 10 mg/kg
Assay type: ADME, organism-based, Canis lupus familiaris
Design: dose 10 mg/kg
cond: in vivo, read-out: Vdss
# value in L/kg; strip the unit string

Reported Vd for `Cc1ncoc1-c1ccc(CC(=O)N[C@H](C)c2ccc(OCC(F)(F)F)cn2)cc1` was 0.3

Reported Vd for `Cc1nccnc1-c1ccc(CC(=O)N[C@H](C)c2ccc(OCC(F)(F)F)cn2)cc1` was 0.36

* * *

method summary: Systemic clearance in dog at 10 mg/kg
Format: ADME, organism-based, Canis lupus familiaris
Set-up: dose 10 mg/kg
cond: in vivo
parameter: clearance (mL/min/kg)
# value in mL/min/kg; strip the unit string

Reported clearance for `Cc1ncoc1-c1ccc(CC(=O)N[C@H](C)c2ccc(OCC(F)(F)F)cn2)cc1` was 3.6

Reported clearance for `Cc1nccnc1-c1ccc(CC(=O)N[C@H](C)c2ccc(OCC(F)(F)F)cn2)cc1` was 11.8

* * *

target or test system: hERG (KCNH2) (Homo sapiens, UniProt Q12809)
Sequence (Q12809 whole entry): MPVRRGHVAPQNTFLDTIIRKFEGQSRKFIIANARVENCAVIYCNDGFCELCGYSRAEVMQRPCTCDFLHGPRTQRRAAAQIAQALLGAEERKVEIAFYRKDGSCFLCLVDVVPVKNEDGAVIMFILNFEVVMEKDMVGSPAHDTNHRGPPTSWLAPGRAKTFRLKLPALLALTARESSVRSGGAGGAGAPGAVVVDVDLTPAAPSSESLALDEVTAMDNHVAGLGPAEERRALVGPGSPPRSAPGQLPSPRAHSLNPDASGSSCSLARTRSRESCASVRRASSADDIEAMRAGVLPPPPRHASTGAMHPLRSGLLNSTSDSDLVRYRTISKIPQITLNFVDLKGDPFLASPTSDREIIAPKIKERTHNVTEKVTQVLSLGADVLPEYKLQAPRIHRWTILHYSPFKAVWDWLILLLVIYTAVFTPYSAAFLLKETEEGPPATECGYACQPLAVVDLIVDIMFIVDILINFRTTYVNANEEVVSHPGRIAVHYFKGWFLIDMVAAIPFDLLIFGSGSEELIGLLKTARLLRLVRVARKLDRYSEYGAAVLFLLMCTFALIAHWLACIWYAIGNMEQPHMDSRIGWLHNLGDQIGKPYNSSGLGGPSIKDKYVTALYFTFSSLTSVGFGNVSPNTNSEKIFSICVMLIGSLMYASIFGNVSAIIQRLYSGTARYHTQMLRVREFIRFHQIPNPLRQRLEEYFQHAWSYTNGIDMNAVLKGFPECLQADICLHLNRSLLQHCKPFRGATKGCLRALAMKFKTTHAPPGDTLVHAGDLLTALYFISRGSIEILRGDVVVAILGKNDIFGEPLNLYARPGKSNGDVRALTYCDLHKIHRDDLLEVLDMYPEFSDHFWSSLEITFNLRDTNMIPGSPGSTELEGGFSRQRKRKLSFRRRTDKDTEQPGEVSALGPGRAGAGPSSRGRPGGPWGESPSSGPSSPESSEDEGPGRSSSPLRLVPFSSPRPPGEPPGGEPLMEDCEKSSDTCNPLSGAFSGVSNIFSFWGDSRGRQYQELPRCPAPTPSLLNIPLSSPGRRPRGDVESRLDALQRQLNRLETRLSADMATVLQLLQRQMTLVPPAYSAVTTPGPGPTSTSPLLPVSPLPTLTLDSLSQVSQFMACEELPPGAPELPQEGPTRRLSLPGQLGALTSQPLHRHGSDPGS
method summary: Inhibition of human ERG at 30 uM
parameter: inhibition at 30 µM (%)
# value in %; strip the unit string

Reported inhibition at 30 µM for `Cc1nccnc1-c1ccc(CC(=O)N[C@H](C)c2ccc(OCC(F)(F)F)cn2)cc1` was 41

* * *

method summary: Systemic clearance in rhesus monkey at 10 mg/kg
Assay type: ADME, organism-based, Macaca mulatta
Design: dose 10 mg/kg
cond: in vivo
parameter: clearance (mL/min/kg)
# value in mL/min/kg; strip the unit string

Reported clearance for `Cc1nccnc1-c1ccc(CC(=O)N[C@H](C)c2ccc(OCC(F)(F)F)cn2)cc1` was 19.3

* * *

method summary: Bioavailability in rat at 10 mg/kg
Format: ADME, organism-based
cond: in vivo
parameter: bioavailability (%)
# value in %; strip the unit string

Reported bioavailability for `Cc1nccnc1-c1ccc(CC(=O)N[C@H](C)c2ccc(OCC(F)(F)F)cn2)cc1` was 71

Reported bioavailability for `Cc1ncoc1-c1ccc(CC(=O)N[C@H](C)c2ccc(OCC(F)(F)F)cn2)cc1` was 100

* * *

Give measured fraction unbound at 5 µM for each item. Keep answers brief.
method summary: Plasma protein binding in rat assessed as fraction unbound at 5 uM
Format: ADME, cell-free
Respond numerically, and do not add a unit to the figure.

Reported fraction unbound at 5 µM for `Cc1nccnc1-c1ccc(CC(=O)N[C@H](C)c2ccc(OCC(F)(F)F)cn2)cc1` was 0.123

Reported fraction unbound at 5 µM for `Cc1ncoc1-c1ccc(CC(=O)N[C@H](C)c2ccc(OCC(F)(F)F)cn2)cc1` was 0.052

* * *

target or test system: Voltage-gated inwardly rectifying potassium channel KCNH2 (Homo sapiens)
Sequence (Q12809 whole entry): as above
method summary: Displacement of […] from human ERG in HEK293 cells
pIC50: −log10 of the molar value.
Give measured pIC50 for each item. Keep answers brief.

Reported pIC50 for `Cc1nccnc1-c1ccc(CC(=O)N[C@H](C)c2ccc(OCC(F)(F)F)cn2)cc1` was < 4.52

Reported pIC50 for `C[C@@H](NC(=O)Cc1ccc(C2CC2)cc1)c1ccc(OCC(F)(F)F)cn1` was < 5.00

Reported pIC50 for `C[C@@H](NC(=O)Cc1ccc(-c2cnn3ncccc23)cc1)c1ccc(OCC(F)(F)F)cn1` was < 4.52

Reported pIC50 for `Cc1ncoc1-c1ccc(CC(=O)N[C@H](C)c2ccc(OCC(F)(F)F)cn2)cc1` was < 4.52

* * *

System: P-gp
method summary: Permeability across pig LLC-PK1 cells expressing P-gp
Type: ADME, cell-based, Sus scrofa
Give measured Papp for each item. Keep answers brief.
# value in ×10⁻⁶ cm/s; strip the unit string

Field Papp (P-gp), entry `C[C@@H](NC(=O)Cc1ccc(N2CC[C@H](F)C2)cc1)c1ccc(OCC(F)(F)F)cn1` : 41

Field Papp (P-gp), entry `Cc1ncoc1-c1ccc(CC(=O)N[C@H](C)c2ccc(OCC(F)(F)F)cn2)cc1` : 35

Field Papp (P-gp), entry `C[C@@H](NC(=O)Cc1ccc(-c2cnn3ncccc23)cc1)c1ccc(OCC(F)(F)F)cn1` : 38

Field Papp (P-gp), entry `Cc1nccnc1-c1ccc(CC(=O)N[C@H](C)c2ccc(OCC(F)(F)F)cn2)cc1` : 44

Field Papp (P-gp), entry `C[C@@H](NC(=O)Cc1ccc(C2CC2)cc1)c1ccc(OCC(F)(F)F)cn1` : 45
